# SYSTEM NAME: T1, human PD-L1-mFc fusion protein (Sino Biological, Cat #10084-H05H) (human, UniProt Q9NZQ7 19-239)
# T1 construct: Bought protein; also called human PD-L1 mouse Fc fusion protein; not shown: mouse Fc
# T1 sequence (Q9NZQ7 19-239 limits assumed): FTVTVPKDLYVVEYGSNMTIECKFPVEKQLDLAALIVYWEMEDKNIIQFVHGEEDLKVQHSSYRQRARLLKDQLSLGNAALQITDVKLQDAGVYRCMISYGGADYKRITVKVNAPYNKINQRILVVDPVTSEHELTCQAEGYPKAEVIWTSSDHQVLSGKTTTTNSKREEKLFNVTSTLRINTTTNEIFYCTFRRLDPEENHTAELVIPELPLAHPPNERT
# ASSAY NOTES: competition ELISA, coated human PD-L1-mFc, competitor human PD-1-His-hFc-Biotin
PROPERTY MEASURED: IC50 (nM)
Give your result in nM as a bare value.

[
  {
    "BINDER": "33H7 (antibody, human IgG1, V domains shown) VH: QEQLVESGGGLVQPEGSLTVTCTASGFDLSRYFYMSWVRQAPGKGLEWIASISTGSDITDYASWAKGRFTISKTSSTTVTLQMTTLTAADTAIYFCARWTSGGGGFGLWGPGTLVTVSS VL: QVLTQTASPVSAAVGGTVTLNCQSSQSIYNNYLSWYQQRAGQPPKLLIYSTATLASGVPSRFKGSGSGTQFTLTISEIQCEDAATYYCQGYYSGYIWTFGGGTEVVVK",
    "NUMERIC RESULT": 2.1
  }
]

-- ask Given 27A2 (antibody, human IgG1, V domains shown) VH: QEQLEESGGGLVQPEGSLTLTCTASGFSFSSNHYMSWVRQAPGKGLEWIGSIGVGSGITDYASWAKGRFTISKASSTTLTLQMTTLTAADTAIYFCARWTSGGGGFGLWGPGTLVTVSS VL: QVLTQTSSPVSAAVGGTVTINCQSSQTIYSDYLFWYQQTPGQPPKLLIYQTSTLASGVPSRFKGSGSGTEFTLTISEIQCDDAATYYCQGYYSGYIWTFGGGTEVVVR , state its recorded IC50.
-- reply 1.9

-- ask Given 28B3 (antibody, human IgG1, V domains shown) VH: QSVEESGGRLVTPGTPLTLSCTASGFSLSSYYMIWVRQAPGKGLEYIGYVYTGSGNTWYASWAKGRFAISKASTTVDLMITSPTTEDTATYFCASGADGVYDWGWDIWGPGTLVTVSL VL: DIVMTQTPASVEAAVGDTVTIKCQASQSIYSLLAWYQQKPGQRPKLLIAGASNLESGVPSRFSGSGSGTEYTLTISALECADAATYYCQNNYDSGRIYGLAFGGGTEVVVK , state its recorded IC50.
-- reply 1.5

Reference source for all entries: patent US20250171542A1
